Reported % inhibition of CsA binding to Cyclophilin A values for a set of compounds
- TARGET: Cyclophilin A (Homo sapiens, UniProt P62937)
- Construct: made in house
- Sequence (P62937 whole entry, species assumed): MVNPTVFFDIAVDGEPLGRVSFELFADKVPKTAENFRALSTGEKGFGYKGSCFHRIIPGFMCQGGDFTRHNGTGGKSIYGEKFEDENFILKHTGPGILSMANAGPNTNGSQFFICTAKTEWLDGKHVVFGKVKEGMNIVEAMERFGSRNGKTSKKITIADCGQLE
- EXPERIMENT_NOTES: AlphaLISA inhibition of binding of biotinylated Cyclosporin A to FLAG tagged Cyclophilin A
- COND: test concentration not given
Where a SMILES comes first, the peptide text is derived from it. [ ]: non-standard residue; d: D form. MeBmt = C/C=C/C[C@@H](C)[C@@H](O)[C@H](NC)C(=O)O; NMeY = CN[C@@H](Cc1ccc(O)cc1)C(=O)O; NMeL = CN[C@@H](CC(C)C)C(=O)O; NMeV = CN[C@H](C(=O)O)C(C)C; NMeA = CN[C@@H](C)C(=O)O; dNMeA = CN[C@H](C)C(=O)O; Abu = CC[C@H](N)C(=O)O; Sar = CNCC(=O)O
Please reply with the bare figure in % and do not write the unit itself.

- COMPOUND: "C/C=C/C[C@@H](C)[C@@H](O)[C@H]1C(=O)N[C@@H](CC)C(=O)N(C)CC(=O)N(C)[C@H](C)C(=O)N[C@@H](C(C)C)C(=O)N(C)[C@@H](C)C(=O)N[C@@H](C)C(=O)N[C@H](C)C(=O)N(C)[C@@H](CC(C)C)C(=O)N(C)[C@@H](CC(C)C)C(=O)N(C)[C@@H](C(C)C)C(=O)N1C [Compound C3] (cyclo([MeBmt][Abu][Sar][dNMeA]V[NMeA]A[dA][NMeL][NMeL][NMeV]))"
  TEST_RESULT: 86.57

Which % inhibition of CsA binding to Cyclophilin A reading was recorded for the compound C/C=C/C[C@@H](C)[C@@H](O)[C@H]1C(=O)N[C@@H](CC)C(=O)N(C)CC(=O)N(C)[C@@H](Cc2ccc(O)cc2)C(=O)N[C@@H](CC(C)C)C(=O)N(C)[C@@H](C)C(=O)N[C@@H](C)C(=O)N[C@H](C)C(=O)N(C)[C@@H](CC(C)C)C(=O)N(C)[C@@H](CC(C)C)C(=O)N(C)[C@@H](C(C)C)C(=O)N1C [Compound C16] (cyclo([MeBmt][Abu][Sar][NMeY]L[NMeA]A[dA][NMeL][NMeL][NMeV])) ?
97.44
